Assay: small-molecule binders of probe aNOTCH2, primary screen, biochemical, small-molecule microarray, 635/667 nm fluorescence (AID 1121);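 note: score merges feature fluorescence read at 667 nm with its signal to noise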
Settings: higher = more signal
Please use Satisfied whenever composite z-score is not below 0.03, and Not satisfied whenever it is.

compound	class.assignment
CC(C)=CCCC(C)=CC(O)C1C=CC2C(=O)N(c3ccccc3)C(=O)C2N1Nc1ccccc1F (stereo unspecified)	Not satisfied
C=CCC(OC(C)=O)[C@@H]1[C@@H](N(Cc2cccc3ccccc23)C(=O)c2ccc(-c3ccccc3)cc2)c2cc(OCCCO)ccc2N1C(=O)c1ccc(-c2ccccc2)cc1 (stereo partly specified)	Not satisfied
[N-]=[N+]=NCc1ccccc1[C@@H]1OC(c2ccc(OCCCO)cc2)=N[C@]1(Cc1ccccc1N=[N+]=[N-])C(=O)NCCN1CCOCC1	Not satisfied
COCCOC(=O)N1C(=O)[C@@]2(c3cc(C#CCC(C(=O)OC)C(=O)OC)ccc31)[C@H](c1ccc(OCCO)cc1)N1[C@H](c3ccccc3)[C@H](c3ccccc3)OC(=O)[C@H]1[C@@H]2C(=O)Nc1nc2ccccc2s1	Satisfied
O=C1C2C=CC(C(O)c3ccco3)N(Nc3ccccc3)C2C(=O)N1c1ccccc1 (stereo unspecified)	Not satisfied

The reported numbers originate from PubChem BioAssay.
